B1: FCHSD1 (parent)
chain: LQEPGVFSPTPPQQFQPAGTDQVC

Variants of: B1
measurementDescription: protein stability index of a GFP-peptide fusion (GPS, HEK-293T) (PSI 1-6); higher = more stable;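 also: lentivirally expressed fusions sorted by FACS into six bins by GFP to DsRed ratio, PSI derived from sequencing read proportions per bin multiplied by bin number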
conditionSet: c terminus: a fixed tail appended
Rule: 1 for protein stability index not less than 4, -1 for anything less.

Please review the entries below; each comes with its answer.
>>> category("T10F")
-1
>>> category("P9Y")
-1

Say whether P9L shows protein stability index of 4 or more.
1

Reported protein stability index at or above 4? P11C
-1

Check the entry P9K : does protein stability index equal or exceed 4?
1
